- METHOD: Determination of oral absorption (bioavailability) in the rat
- TEST_SETTINGS: rat, plasma, po, 10 mg/kg
READOUT: bioavailability at 24 h (%)
Response body: numeric value in %, unit text excluded.

So what's the measured bioavailability at 24 h for this one? Nc1nc(O)c2ncn(COC(CO)CO)c2n1 [Ganciclovir]
7.9

----------
- METHOD: Determination of oral absorption (bioavailability) in the Cynomolgus monkey
- Format: in vivo, Male cynomolgus monkeys
- TEST_SETTINGS: oral gavage dose equimolar to 10 mg/kg ganciclovir, plasma ganciclovir
READOUT: bioavailability (%)
Write down the numeric answer in % and omit the unit.

Which bioavailability reading was recorded for the compound Nc1nc(O)c2ncn(COC(CO)CO)c2n1 ?
9.9
